assay: Components of the Cytosolic LPS Sensing Pathway: Gene Identification via Genome-wide siRNA Screen; conditions: RAW264.7 macrophages, IL-1a HTRF, actives lie on both sides, screened at 100 nM (by protocol), cells primed 5 h with Pam3CSK4 first;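 also: robust z of the log signal after scaling to non-targeting control siRNA wells of the plate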
Hit rate of the full screen: of about 53,000 sequences, about 3,700 (7%) were called active. This excerpt belongs to a sample that is enriched for actives.
// reported z-score per item
The reply should be a number, written without any unit.

(Q) If you can, please state the reported z-score value of GGUGGAAGAGGUCAAAUAATT against Denr .
(A) 1.05

(Q) Also GGAAAUCACAUUGUCCUGCTT against 3010003L21Rik , if possible.
(A) 1.13

(Q) Entry GGAAAAACUCUUCUUCACGTT against Nphs1 please
(A) -0.0272

(Q) Continue with CCGGAUGUGCCUUGUCUACTT against Ckap5
(A) -1.58

(Q) Ok, now GGUGCAGAAGCUCAAGUUCTT against Cpne2
(A) 2.44

(Q) Subsequent entry: GGUUGUUAAGCUGAAGCAATT against Prkacb
(A) -0.219

(Q) Now consider GGAGAACUUCAGUGAGUCCTT against Ambp .
(A) -2.43

---

assay: Components of the Cytosolic LPS Sensing Pathway: Gene Identification via Genome-wide siRNA Screen; details: RAW264.7 macrophages, IL-1a HTRF, actives lie on both sides, screened at 100 nM (by protocol), cells primed 5 h with Pam3CSK4 first;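 also: robust z of the log signal after scaling to non-targeting control siRNA wells of the plate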
Among all 53,000 sequences or so, about 3,700 (7%) were called active. This is one part of a sample in which actives are shown more often than they occur.
The following sequences are shown together with reported z-score values.

Below, 3 sequences whose answers are already recorded.
entry_sequence="CCCAAAACUUCGUUUGUGUTT against Vezf1" result="-0.973 (inactive)"
entry_sequence="GGAAUACCACAUGCUUUUGTT against Ldah" result="-0.288 (inactive)"
entry_sequence="GGAAUGUGAGCUUAUCAUATT against Tlr1" result="-0.965 (inactive)"

(Q) Could you share which z-score value was measured for GGCCCAGGUGGAUAGUUAUTT against Cep120 ?
(A) 2.03 (active)

(Q) Also GGUAAAAUACUACCUGAGATT against Abca15 ?
(A) -0.0103 (inactive)

---

experiment: Components of the Cytosolic LPS Sensing Pathway: Gene Identification via Genome-wide siRNA Screen; conditions: RAW264.7 macrophages, IL-1a HTRF, actives lie on both sides, screened at 100 nM (by protocol), cells primed 5 h with Pam3CSK4 first;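 also: robust z of the log signal after scaling to non-targeting control siRNA wells of the plate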
Hit rate of the full screen: of about 53,000 sequences, about 3,700 (7%) were called active. This excerpt belongs to a sample that is enriched for actives.
recorded_endpoint: z-score
No unit in the answer, please; the number alone is enough.

entry_sequence="GGUGAGAUGGUUCAACAUGTT against Olfr77" recorded_endpoint=z-score number=1.7
entry_sequence="GGUUCGUCGCCUUUUAGGGTT against Alx4" recorded_endpoint=z-score number=3.74
entry_sequence="CGUGCCACUUUUACCGUCCTT against Zdhhc8" recorded_endpoint=z-score number=-2.43
entry_sequence="GCCGUAUGGCAGGUAUUUUTT against Tmem266" recorded_endpoint=z-score number=3.27
entry_sequence="GGAAAAUGAGAUCAUGCCCTT against Sdf4" recorded_endpoint=z-score number=-0.488
entry_sequence="GGAGGUGAAGCUUCGAAUGTT against Slc25a10" recorded_endpoint=z-score number=0.052

(Q) Can you look up the measured z-score of GGUACAAUGAAAGUCUCACTT against Cnot6 for me?
(A) -0.0743

(Q) Do the same for GGGCAAGUUCCAUCUCCUUTT against Cdc42ep2 please
(A) -2.2
